Target: H^+ /K^+ -ATPase (Sus scrofa, UniProt P19156)
Construct: a microsome fraction prepared from porcine gastric mucosa was used as a standard enzyme
Sequence (P19156 2-1034 limits assumed): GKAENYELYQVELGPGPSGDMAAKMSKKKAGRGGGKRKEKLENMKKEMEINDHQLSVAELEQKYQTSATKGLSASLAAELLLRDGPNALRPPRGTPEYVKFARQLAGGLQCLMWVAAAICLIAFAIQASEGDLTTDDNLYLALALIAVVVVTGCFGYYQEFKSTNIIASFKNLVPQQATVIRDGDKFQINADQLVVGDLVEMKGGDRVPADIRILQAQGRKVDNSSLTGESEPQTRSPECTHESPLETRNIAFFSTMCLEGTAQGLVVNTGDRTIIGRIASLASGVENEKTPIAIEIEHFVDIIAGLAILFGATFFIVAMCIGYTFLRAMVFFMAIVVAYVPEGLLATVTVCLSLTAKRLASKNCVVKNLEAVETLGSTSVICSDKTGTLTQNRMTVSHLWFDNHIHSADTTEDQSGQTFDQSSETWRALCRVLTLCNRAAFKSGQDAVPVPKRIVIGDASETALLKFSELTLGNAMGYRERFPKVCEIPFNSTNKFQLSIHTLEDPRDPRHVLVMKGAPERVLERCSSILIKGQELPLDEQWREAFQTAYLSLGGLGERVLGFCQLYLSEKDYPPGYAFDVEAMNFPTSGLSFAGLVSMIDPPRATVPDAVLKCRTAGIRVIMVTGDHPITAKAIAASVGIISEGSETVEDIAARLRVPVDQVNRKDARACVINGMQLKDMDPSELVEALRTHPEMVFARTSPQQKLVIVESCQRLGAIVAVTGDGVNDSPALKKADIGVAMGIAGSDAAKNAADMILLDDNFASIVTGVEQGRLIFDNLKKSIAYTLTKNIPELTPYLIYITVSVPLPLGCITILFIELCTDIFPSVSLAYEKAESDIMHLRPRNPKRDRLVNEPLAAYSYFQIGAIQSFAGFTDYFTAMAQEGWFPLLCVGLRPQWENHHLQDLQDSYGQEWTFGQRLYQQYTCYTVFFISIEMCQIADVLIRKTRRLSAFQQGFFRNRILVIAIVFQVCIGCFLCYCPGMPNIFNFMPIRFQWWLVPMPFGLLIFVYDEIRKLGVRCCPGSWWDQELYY
Sequence (P18434 whole entry partner): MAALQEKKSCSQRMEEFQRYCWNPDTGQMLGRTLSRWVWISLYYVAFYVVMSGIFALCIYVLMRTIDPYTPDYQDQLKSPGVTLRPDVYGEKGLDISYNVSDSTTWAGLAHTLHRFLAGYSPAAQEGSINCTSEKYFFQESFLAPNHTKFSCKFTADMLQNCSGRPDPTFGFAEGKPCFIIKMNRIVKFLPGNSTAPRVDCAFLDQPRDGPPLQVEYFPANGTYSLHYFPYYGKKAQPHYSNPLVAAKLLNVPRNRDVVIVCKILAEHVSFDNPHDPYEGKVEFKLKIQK
Experiment: Inhibitory Action on H^+ /K^+ -ATPase Activity
Conditions: microsome fraction from porcine gastric mucosa, pH7.4, 37° C., 30 min preincubation, 15 min reaction
Each entry below lists one item and its recorded log10 IC50 value.
Scale: log10; quantity: IC50; unit before log: µM

Example entries begin here.
1. CCN(CC)c1c(-c2ccccc2C)nc2c3cccc(Br)c3ccn12 [Compound 200]
0.08
2. COc1ccccc1-c1nc2c3ccsc3cc(C)n2c1N [Compound 245]
0.95
3. Cn1cccc1-c1nc2c3ccccc3ccn2c1N [Compound 94]
0.48

Q: Form: Entry = C=CCN(CC)c1c(-c2ccccc2C)nc2c3ccccc3ccn12 [Compound 222] | System = H^+ /K^+ -ATPase (Sus scrofa, UniProt P19156) | log10 IC50 = ____
A: 0.30

====

Each entry below lists one item and its recorded log10 of IC50 value.
Target: H^+ /K^+ -ATPase (Sus scrofa)
Construct: a microsome fraction prepared from porcine gastric mucosa was used as a standard enzyme
Assay: Inhibitory Action on H^+ /K^+ -ATPase Activity
Conditions: microsome fraction from porcine gastric mucosa, pH7.4, 37° C., 30 min preincubation, 15 min reaction
Scale: log10; quantity: IC50; unit before log: µM

Example entries begin here.
1. Cc1ccccc1-c1nc2c3ccn(C)c3ccn2c1N [Compound 291]
0.68
2. CCNc1c(-c2ccccc2C)nc2c3ccsc3ccn12 [Compound 340]
1.52
3. Cc1ccccc1-c1nc2c3ccsc3ccn2c1N [Compound 234]
0.88
4. Cc1ccccc1-c1nc2c3ccsc3cc(C)n2c1N [Compound 236]
0.67
5. CCc1ccccc1-c1nc2c3ccccc3ccn2c1N(CC)CCC(C)C [Compound 216]
0.40
6. CCCN(CC)c1c(-c2sccc2C)nc2c3ccccc3ccn12 [Compound 212]
0.28

Q: Requested read-out: log10 of IC50. Entry: CCCN(CC)c1c(-c2ccccc2F)nc2c3ccccc3ccn12 [Compound 206]
A: 0.36

Q: Requested read-out: log10 of IC50. Entry: COc1ccc(-c2cn3c(N)c(-c4ccccc4C)nc3c3ccccc23)cc1 [Compound 21]
A: 0.87

Q: Requested read-out: log10 of IC50. Entry: Cc1ccccc1-c1nc2c3ccccc3ccn2c1N1CCCCC1 [Compound 217]
A: 0.67

Q: Requested read-out: log10 of IC50. Entry: CCCc1cccc2c1ccn1c(NCC)c(-c3ccccc3C)nc21 [Compound 163]
A: 0.66

Q: Requested read-out: log10 of IC50. Entry: Cc1cc(-c2nc3c4ccccc4ccn3c2N)c(C)s1 [Compound 83]
A: 0.75

Q: Requested read-out: log10 of IC50. Entry: CCCCCCNc1c(-c2ccccc2C)nc2c3ccccc3ccn12 [Compound 191]
A: 0.72

Q: Requested read-out: log10 of IC50. Entry: Cc1ccccc1-c1nc2n(c1N)C(C)(C)Cc1ccccc1-2 [Compound 104]
A: 1.08

Q: Requested read-out: log10 of IC50. Entry: CCNc1c(-c2ccccc2C)nc2c3ccccc3ccn12 [Compound 158]
A: 1.11

Q: Requested read-out: log10 of IC50. Entry: Cc1ccccc1-c1nc2c3cc(Cl)ccc3ccn2c1N [Compound 6]
A: 1.08

====

Test system: ethanol-induced gastric lesion
Experiment: Inhibition of Ethanol-induced Gastric Lesion (Protection of gastric mucosa)
Type: in vivo, male Wister rats
Conditions: Rattus norvegicus, po, 1 h; 30 mg/kg orally, rats, ethanol 0.5 ml/100 g
Each entry below lists one item and its recorded inhibition in vivo at 30 mg/kg value.
Write your answer as a measured quantity: the number, then the unit.

Q: Requested read-out: inhibition in vivo at 30 mg/kg. Entry: `Cc1ccccc1-c1nc2c3ccsc3cc(C)n2c1N`
A: 91.5%

Q: Requested read-out: inhibition in vivo at 30 mg/kg. Entry: `Cc1sccc1-c1nc2c3ccsc3ccn2c1N`
A: 92.4%

Q: Requested read-out: inhibition in vivo at 30 mg/kg. Entry: `CCNc1c(-c2ccccc2C)nc2c3ccccc3ccn12`
A: 92.4%
